# protocol: pH-dependent aqueous solubility at ambient temperature
# Assay type: physicochemical
# run.parameters: 20 °C, aqueous buffer; 0.05N Phosphate Buffer, pH 2.5, 20 to 25° C.
measured.quantity: solubility (µg/mL)

>>> print(df.to_string())
                                   molecule  measured_quantity  value_unit  measured
0  Cc1c(-c2ccccc2)oc2c(C(=O)OCCN3CCCCC3)cccc2c1=O.Cl [flavoxate]         solubility       µg/mL      7640

* * *

# protocol: Solubility of flavoxate in various solvents at 20° C.
# Format: physicochemical
# run.parameters: Water, read-out: Solubility % w/v
measured.quantity: solubility (µg/mL)

>>> print(df.to_string())
                                   compound  value_unit  measured
0  Cc1c(-c2ccccc2)oc2c(C(=O)OCCN3CCCCC3)cccc2c1=O.Cl [flavoxate]       µg/mL      7500

* * *

# protocol: pH-dependent aqueous solubility at ambient temperature
# Format: physicochemical
# run.parameters: 20 °C, aqueous buffer; 0.05N Phosphate Buffer, pH 6.0, 20 to 25° C.
measured.quantity: solubility

In [3]: df
Out[3]:
                                   compound    measured
0  Cc1c(-c2ccccc2)oc2c(C(=O)OCCN3CCCCC3)cccc2c1=O.Cl [flavoxate]  15.4 mg/mL
